Reference source for all entries: the supplement of paper PMC10567573

B1: FAM98B (parent)
chain: QLDKNSEVYQEVQAMFDTLGIPKS

Variants of: B1
test protocol: protein stability index of a GFP-peptide fusion (GPS, HEK-293T) (PSI 1-6); higher = more stable;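 further: lentivirally expressed fusions sorted by FACS into six bins by GFP to DsRed ratio, PSI derived from sequencing read proportions per bin multiplied by bin number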
assay setup: c terminus: a fixed tail appended
quantity kind: protein stability index
// no unit string in output, number only

Data request: Quickly give me recorded protein stability index for `D3I`
Data returned: 1.95

Data request: Quickly give me recorded protein stability index for `Q10R`
Data returned: 2.29

Data request: Quickly give me recorded protein stability index for `M15Y`
Data returned: 2.55

Data request: Quickly give me recorded protein stability index for `M15N`
Data returned: 3.1

Data request: Quickly give me recorded protein stability index for `E11I`
Data returned: 1.67

Data request: Quickly give me recorded protein stability index for `F16N`
Data returned: 3.77

Data request: Quickly give me recorded protein stability index for `L19E`
Data returned: 3.58

Data request: Quickly give me recorded protein stability index for `P22F`
Data returned: 2.12

Data request: Quickly give me recorded protein stability index for `L19S`
Data returned: 3.46

Data request: Quickly give me recorded protein stability index for `Q1K`
Data returned: 3.2

Data request: Quickly give me recorded protein stability index for `Q10K`
Data returned: 2.53
